- Test system: HT29 colon
- PROCEDURE DETAILS: NCI-60 one-dose screen, 48 h
- STUDY CONDITIONS: 10 µM unless noted
About 83,000 compounds went through this panel and 20% of them were active in at least one assay; those are over-represented in the sample as a whole. Active and inactive are the calls of the source. How the source made its calls: active means growth percent below 10; inactive means the rest.
Tick one outcome: active, inactive

Illustrative cases are given below, each with its answer.
COMPOUND	CAT
O=C(/C=C/c1ccc(Cl)cc1)c1ccccc1	inactive
C=CCCCCCCCCC(=O)[O][Sn]([CH2]CCC)([CH2]CCC)[CH2]CCC	active
NC(N)=NC(N)=NCCCc1ccccc1	inactive

input: # fetch the recorded call for CN(C)c1nc(-c2ccco2)n2nc(-c3ccco3)cc2n1 here
output: inactive

input: Here is the next compound: CN(C)c1nc(N)nc(Cn2c(-c3nonc3N)nc3ccccc32)n1
output: inactive

input: Here is the next compound: CCOC(=O)C(C(C)=O)c1nc2sc3cc(Cl)ccc3n2c(=N)c1C#N (stereo unspecified)
output: inactive

input: Here is the next compound: O=C1/C(=C/c2ccc3cccc(Cl)c3n2)SC(=S)N1CCc1ccc(O)cc1
output: inactive

input: Here is the next compound: COc1ccc(C(=O)Nc2nc(-c3ccc(Cl)cc3)cs2)cc1
output: inactive

input: Here is the next compound: CC(C)(C)c1ccc(C(O)CCCN2CCC(C(O)(c3ccccc3)c3ccccc3)CC2)cc1 (stereo unspecified)
output: active

input: Here is the next compound: C[n+]1c2ccccc2c(NC2CCNCC2)c2[nH]c3ccccc3c21
output: active

###

Catalogue of growth readings, one per entry.
- Tested on: NCI-H23 lung
- PROCEDURE DETAILS: NCI-60 one-dose screen, 48 h (100 = growth as untreated, 0 = no growth, -100 = all killed)
- STUDY CONDITIONS: 10 µM unless noted
The panel holds about 83,000 compounds, 20% with a hit somewhere; the sample as a whole holds those more often. Calls of active or inactive are those of the source. The calls were made as follows: active = growth percent below 10; inactive = the rest.

As a guide, the following entries are already answered.
COMPOUND	EXPERIMENTAL TARGET	growth
C/C(=N/N=C(N)N)c1ccc(Cl)cc1	NCI-H23 lung	95.1% (inactive)
COc1ccc(/C=N\Nc2ccc([N+](=O)[O-])cn2)cc1OC	NCI-H23 lung	88.4% (inactive)
Cc1cc(C)c(OC(=O)CSc2nc3ccccc3c(=O)n2CCc2ccccc2)cc1C	NCI-H23 lung	101% (inactive)
C=CCCCCCCCCC(=O)[O][Sn]([CH2]CCC)([CH2]CCC)[CH2]CCC	NCI-H23 lung	-86.2% (active)

input: If you can, please state the reported growth value of CCn1c2c(c3ccccc31)SC1c3cccn3CCN1C2=S (centres undefined) .
output: 93.7% (inactive)

input: Here is the next compound: CCCCCCCCSc1ncnc2c1ncn2CO
output: 50.8% (inactive)

input: Here is the next compound: O=C(Nc1cccc(-n2cc(-c3ccncc3)c(-c3ccc(O)c(Cl)c3)n2)c1)Nc1ccc(Cl)c(C(F)(F)F)c1
output: 1.11% (active)

input: Here is the next compound: N#Cc1ccc(NC(=O)Nc2ccc(Oc3ccc(NC(=O)Nc4ccc(C#N)cc4)cc3)cc2)cc1
output: -0.877% (active)

input: Here is the next compound: CN1C(=O)/C(=C/c2nc(-c3cccc(F)c3)n3ccccc23)c2ccccc21
output: 83.7% (inactive)
